Below: a set of entries, each annotated with reported pIC50.
biological target: PREP (Homo sapiens (Human), UniProt P48147); test: PREP inhibition assay (recombinant enzyme, Z-Gly-Pro-AMC substrate); format: biochemical; conditions: Table 4
Sequence (P48147 whole entry): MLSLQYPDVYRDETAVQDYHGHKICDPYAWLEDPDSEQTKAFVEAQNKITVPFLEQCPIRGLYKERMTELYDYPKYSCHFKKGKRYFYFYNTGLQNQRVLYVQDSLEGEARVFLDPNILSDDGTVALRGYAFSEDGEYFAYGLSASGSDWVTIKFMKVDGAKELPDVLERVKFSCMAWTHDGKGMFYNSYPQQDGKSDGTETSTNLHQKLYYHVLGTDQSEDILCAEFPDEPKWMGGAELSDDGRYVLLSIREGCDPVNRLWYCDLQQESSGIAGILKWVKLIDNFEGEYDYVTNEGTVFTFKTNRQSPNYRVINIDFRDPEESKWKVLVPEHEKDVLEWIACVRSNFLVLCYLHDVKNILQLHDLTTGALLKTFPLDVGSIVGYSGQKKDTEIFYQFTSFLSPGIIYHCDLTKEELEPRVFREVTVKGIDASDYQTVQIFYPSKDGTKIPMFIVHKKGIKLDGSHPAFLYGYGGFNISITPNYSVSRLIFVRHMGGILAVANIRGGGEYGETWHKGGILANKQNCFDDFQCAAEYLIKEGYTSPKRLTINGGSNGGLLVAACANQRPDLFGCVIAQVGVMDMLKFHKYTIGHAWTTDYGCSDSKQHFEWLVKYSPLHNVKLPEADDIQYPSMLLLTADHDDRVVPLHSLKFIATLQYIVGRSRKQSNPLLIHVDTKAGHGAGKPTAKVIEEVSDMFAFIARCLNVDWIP
Scale explanation: pIC50 corresponds to minus log10 of a concentration expressed in moles per litre.

CC1(C)C(/C=C/C2=C(Oc3ccc(S(=O)(=O)O)cc3)C(=C/C=C3/N(CCCCS(=O)(=O)O)c4ccc(S(=O)(=O)O)cc4C3(C)C)/CCC2)=[N+](CCCCCC(=O)N[C@@H](CCCCn2cc(CCC(=O)NCCCOc3ccc4nccc(C(=O)NCC(=O)N5CCC[C@H]5C#N)c4c3)nn2)C(=O)NCCNC(=O)CCC(C(=O)O)N2CCN(CC(=O)O)CCN(CC(=O)O)CCN(CC(=O)O)CC2)c2ccc(S(=O)(=O)[O-])cc21 (stereo partly drawn) : 5.60

State the recorded pIC50 for this entry: N#C[C@@H]1CCCN1C(=O)CNC(=O)c1ccnc2ccc(OCCCNC(=O)CCc3cn(CCOCCOCCOCCC(=O)N[C@@H](CCCCNC(=O)CCC(C(=O)O)N4CCN(CC(=O)O)CCN(CC(=O)O)CCN(CC(=O)O)CC4)C(=O)NCCCCC(=O)N(CCCC[C@H](NC(=O)N[C@@H](CCC(=O)O)C(=O)O)C(=O)O)Cc4ccc(Br)cc4)nn3)cc12 (stereo partly drawn)
5.86

Try this molecule too: N#C[C@@H]1CCCN1C(=O)CNC(=O)c1ccnc2ccc(OCCCNC(=O)CCc3cn(CCCC[C@H](NC(=O)CN4CCN(CC(=O)O)CCN(CC(=O)O)CCN(CC(=O)O)CC4)C(=O)NCCCCCC(=O)N(CCCC[C@H](NC(=O)N[C@@H](CCC(=O)O)C(=O)O)C(=O)O)Cc4ccc(Br)cc4)nn3)cc12
6.43

###

system: U87 tumor; assay: PET imaging and tissue biodistribution in U87 tumor-bearing mice; assay type: in vivo, mouse; conditions: untitled table; radiolabel and time not given; in %ID/g
Below: a set of entries, each annotated with reported Biodistribution: Lacrim Gland.

N#C[C@@H]1CCCN1C(=O)CNC(=O)c1ccnc2ccc(OCCCNC(=O)CCOCCOCCOCCNC(=O)C(CCNC(=O)c3ccc(F)nc3)NC(=O)CN3CCN(CC(=O)O)CCN(CC(=O)O)CCN(CC(=O)O)CC3)cc12 (some centres unmarked) [SRI-08-27] : 4.62 ± 1.02
N#C[C@@H]1CCCN1C(=O)CNC(=O)c1ccnc2ccc(OCCCN3CC4CN(C(=O)C(CCNC(=O)c5ccc(F)nc5)NC(=O)CN5CCN(CC(=O)O)CCN(CC(=O)O)CCN(CC(=O)O)CC5)CC4C3)cc12 (some centres unmarked) [SRI-08-37] : 9.11 ± 2.71
N#C[C@@H]1CCCN1C(=O)CNC(=O)c1ccnc2ccc(OCCCNC(=O)C(CCNC(=O)c3ccc(F)nc3)NC(=O)CN3CCN(CC(=O)O)CCN(CC(=O)O)CCN(CC(=O)O)CC3)cc12 (some centres unmarked) [SRI-08-15] : 8.01 ± 1.01
N#CC1CCCN1C(=O)CNC(=O)c1ccnc2ccc(OCCCNC(=O)CCc3cn(CCCC[C@H](NC(=O)c4ccc(F)nc4)C(=O)NCCNC(=O)CN4CCN(CC(=O)O)CCN(CC(=O)O)CCN(CC(=O)O)CC4)nn3)cc12 (some centres unmarked) [SRI-08-35] : 5.27 ± 1.52

Please examine the following record next.
State the recorded Biodistribution: Lacrim Gland for this entry: N#CC1CCCN1C(=O)CNC(=O)c1ccnc2ccc(OCCCNC(=O)CCc3cn(CC[C@H](NC(=O)c4ccc(F)nc4)C(=O)NCCNC(=O)CN4CCN(CC(=O)O)CCN(CC(=O)O)CCN(CC(=O)O)CC4)nn3)cc12 (some centres unmarked) [SRI-07-56]
4.32 ± 1.56

###

tested on: U87 tumor; test: PET imaging and tissue biodistribution in U87 tumor-bearing mice; format: in vivo, mouse; settings: untitled table; radiolabel and time not given; in %ID/g
ASSAY METRIC: Biodistribution: Sm Intest
Give your answer as a number; write no unit.

// below: answered compounds
N#C[C@@H]1CCCN1C(=O)CNC(=O)c1ccnc2ccc(OCCCN3CC4CN(C(=O)C(CCNC(=O)c5ccc(F)nc5)NC(=O)CN5CCN(CC(=O)O)CCN(CC(=O)O)CCN(CC(=O)O)CC5)CC4C3)cc12 (some centres unmarked) [SRI-08-37] : 3.36
N#C[C@@H]1CCCN1C(=O)CNC(=O)c1ccnc2ccc(OCCCNC(=O)CCOCCOCCOCCNC(=O)C(CCNC(=O)c3ccc(F)nc3)NC(=O)CN3CCN(CC(=O)O)CCN(CC(=O)O)CCN(CC(=O)O)CC3)cc12 (some centres unmarked) [SRI-08-27] : 6.28
N#CC1CCCN1C(=O)CNC(=O)c1ccnc2ccc(OCCCNC(=O)CCc3cn(CC[C@H](NC(=O)c4ccc(F)nc4)C(=O)NCCNC(=O)CN4CCN(CC(=O)O)CCN(CC(=O)O)CCN(CC(=O)O)CC4)nn3)cc12 (some centres unmarked) [SRI-07-56] : 9.55
N#C[C@@H]1CCCN1C(=O)CNC(=O)c1ccnc2ccc(OCCCNC(=O)C(CCNC(=O)c3ccc(F)nc3)NC(=O)CN3CCN(CC(=O)O)CCN(CC(=O)O)CCN(CC(=O)O)CC3)cc12 (some centres unmarked) [SRI-08-15] : 3.85

State the recorded Biodistribution: Sm Intest for this entry: N#CC1CCCN1C(=O)CNC(=O)c1ccnc2ccc(OCCCNC(=O)CCc3cn(CCCC[C@H](NC(=O)c4ccc(F)nc4)C(=O)NCCNC(=O)CN4CCN(CC(=O)O)CCN(CC(=O)O)CCN(CC(=O)O)CC4)nn3)cc12 (some centres unmarked) [SRI-08-35]
8.20

###

molecular target: UniProt Q12884; assay: FAP inhibition assay (recombinant enzyme, Z-Gly-Pro-AMC substrate); type: biochemical; details: Table 4; read-out: FAP Ki
Below: a set of entries, each annotated with reported Ki.
Please respond with the number in nM and leave the unit unwritten.

// below: answered compounds
N#CC1CCCN1C(=O)CNC(=O)c1ccnc2ccc(OCCCNC(=O)CCc3cn(CC[C@H](NC(=O)CN4CCN(CC(=O)O)CCN(CC(=O)O)CC4)C(=O)NCCCCCC(=O)NCCCC[C@H](NC(=O)N[C@@H](CC(=O)O)C(=O)O)C(=O)O)nn3)cc12 (stereo partly drawn) : 0.45
N#C[C@@H]1CCCN1C(=O)CNC(=O)c1ccnc2ccc(OCCCNC(=O)CCc3cn(CCOCCOCCOCCC(=O)N[C@@H](CCCCNC(=O)CCC(C(=O)O)N4CCN(CC(=O)O)CCN(CC(=O)O)CCN(CC(=O)O)CC4)C(=O)NCCCCC(=O)N(CCCC[C@H](NC(=O)N[C@@H](CCC(=O)O)C(=O)O)C(=O)O)Cc4ccc(Br)cc4)nn3)cc12 (stereo partly drawn) : 0.68

Please examine the following record next.
// lookup Ki | system=UniProt Q12884 | key= N#C[C@@H]1CCCN1C(=O)CNC(=O)c1ccnc2ccc(OCCCNC(=O)CCc3cn(CCOCCOCCOCCC(=O)N[C@@H](CCCCNC(=O)CN4CCN(CC(=O)O)CCN(CC(=O)O)CCN(CC(=O)O)CC4)C(=O)NCCCCC(=O)N(CCCC[C@H](NC(=O)N[C@@H](CCC(=O)O)C(=O)O)C(=O)O)Cc4ccc(Br)cc4)nn3)cc12
0.36

###

target: FAP (Homo sapiens (Human), UniProt Q12884); experiment: FAP inhibition assay (recombinant enzyme, Z-Gly-Pro-AMC substrate); assay type: biochemical; conditions: Table 4
Sequence (Q12884 whole entry): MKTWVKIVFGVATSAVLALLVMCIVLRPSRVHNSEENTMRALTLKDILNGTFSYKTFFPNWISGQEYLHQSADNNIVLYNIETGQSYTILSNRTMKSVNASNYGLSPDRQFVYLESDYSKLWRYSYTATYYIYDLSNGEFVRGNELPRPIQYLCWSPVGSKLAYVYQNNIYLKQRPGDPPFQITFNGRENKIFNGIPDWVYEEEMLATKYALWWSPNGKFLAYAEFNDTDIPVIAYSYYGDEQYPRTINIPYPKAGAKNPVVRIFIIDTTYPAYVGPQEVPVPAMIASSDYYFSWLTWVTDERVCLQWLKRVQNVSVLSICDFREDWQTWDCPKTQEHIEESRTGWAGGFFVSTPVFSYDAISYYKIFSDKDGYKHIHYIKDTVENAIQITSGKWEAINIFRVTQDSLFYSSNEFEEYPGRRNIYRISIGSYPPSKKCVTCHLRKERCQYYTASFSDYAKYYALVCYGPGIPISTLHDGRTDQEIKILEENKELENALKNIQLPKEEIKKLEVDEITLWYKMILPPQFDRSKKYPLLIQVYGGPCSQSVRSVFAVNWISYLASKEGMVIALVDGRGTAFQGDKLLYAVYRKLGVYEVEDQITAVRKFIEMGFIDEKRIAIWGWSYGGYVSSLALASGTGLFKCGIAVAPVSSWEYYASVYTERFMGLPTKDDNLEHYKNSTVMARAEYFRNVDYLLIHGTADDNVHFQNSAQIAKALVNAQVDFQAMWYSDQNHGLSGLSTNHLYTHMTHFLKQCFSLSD
ASSAY METRIC: IC50

N#C[C@@H]1CCCN1C(=O)CNC(=O)c1ccnc2ccc(OCCCNC(=O)CCc3cn(CCOCCOCCOCCC(=O)N[C@@H](CCCCNC(=O)CN4CCN(CC(=O)O)CCN(CC(=O)O)CCN(CC(=O)O)CC4)C(=O)NCCCCC(=O)N(CCCC[C@H](NC(=O)N[C@@H](CCC(=O)O)C(=O)O)C(=O)O)Cc4ccc(Br)cc4)nn3)cc12 [SB-FAP-01] : 1.79 nM

Please examine the following record next.
State the recorded IC50 for this entry: N#C[C@@H]1CCCN1C(=O)CNC(=O)c1ccnc2ccc(OCCCNC(=O)CCc3cn(CCOCCOCCOCCC(=O)N[C@@H](CCCCNC(=O)CN4CCN(CC(=O)O)CCN(CC(=O)O)CC4)C(=O)NCCCCC(=O)N(CCCC[C@H](NC(=O)N[C@@H](CCC(=O)O)C(=O)O)C(=O)O)Cc4ccc(Br)cc4)nn3)cc12 [SB-FAP-02]
1.53 nM

###

tested on: U87 tumor; experiment: PET imaging and tissue biodistribution in U87 tumor-bearing mice; type: in vivo, mouse; conditions: untitled table; radiolabel and time not given; in %ID/g
API: label(entry) gives True if the entry's Biodistribution: Pancreas is strictly smaller than 10; on equality or larger values it gives False.

# count of solved cases: 4
N#C[C@@H]1CCCN1C(=O)CNC(=O)c1ccnc2ccc(OCCCNC(=O)CCOCCOCCOCCNC(=O)C(CCNC(=O)c3ccc(F)nc3)NC(=O)CN3CCN(CC(=O)O)CCN(CC(=O)O)CCN(CC(=O)O)CC3)cc12 (some centres unmarked) [SRI-08-27] : True
N#C[C@@H]1CCCN1C(=O)CNC(=O)c1ccnc2ccc(OCCCN3CC4CN(C(=O)C(CCNC(=O)c5ccc(F)nc5)NC(=O)CN5CCN(CC(=O)O)CCN(CC(=O)O)CCN(CC(=O)O)CC5)CC4C3)cc12 (some centres unmarked) [SRI-08-37] : True
N#C[C@@H]1CCCN1C(=O)CNC(=O)c1ccnc2ccc(OCCCNC(=O)C(CCNC(=O)c3ccc(F)nc3)NC(=O)CN3CCN(CC(=O)O)CCN(CC(=O)O)CCN(CC(=O)O)CC3)cc12 (some centres unmarked) [SRI-08-15] : True
N#CC1CCCN1C(=O)CNC(=O)c1ccnc2ccc(OCCCNC(=O)CCc3cn(CCCC[C@H](NC(=O)c4ccc(F)nc4)C(=O)NCCNC(=O)CN4CCN(CC(=O)O)CCN(CC(=O)O)CCN(CC(=O)O)CC4)nn3)cc12 (some centres unmarked) [SRI-08-35] : False

Determine if N#CC1CCCN1C(=O)CNC(=O)c1ccnc2ccc(OCCCNC(=O)CCc3cn(CC[C@H](NC(=O)c4ccc(F)nc4)C(=O)NCCNC(=O)CN4CCN(CC(=O)O)CCN(CC(=O)O)CCN(CC(=O)O)CC4)nn3)cc12 (some centres unmarked) [SRI-07-56] shows Biodistribution: Pancreas strictly lower than 10.
False
